system: UACC-257 melanoma; assay: NCI-60 one-dose screen, 48 h (100 = growth as untreated, 0 = no growth, -100 = all killed); settings: 10 µM unless noted
About 83,000 compounds went through this panel and 20% of them were active in at least one assay; those are over-represented in the sample as a whole.
Label 1 (yes) when growth >= 50%; otherwise 0 (no).

COc1cc(/C=C/C(=O)N2c3ccccc3CC2C)c(OC)c2c1OCO2 (stereo unspecified); 1 (yes)
CN1CCN(Cc2ccc(NC(=O)c3[nH]ncc3Nc3cc(OC4CCCC4)ncn3)cc2)CC1; 0 (no)

Could you tell me if the measured growth of "COc1ccc(-c2cc(=O)c3c(OC)c4ccoc4c(/C=C/C=O)c3o2)cc1" reaches 50% or more? 1 (yes)

Could you tell me if the measured growth of "CCCCNc1nc(NC(C)(C)C)nc(NC(C)(C)C)n1" reaches 50% or more? 1 (yes)

Could you tell me if the measured growth of Cc1ccc(NCCNCC(O)CO)c2c(=O)c3ccccc3sc12 (stereo unspecified) reaches 50% or more? 0 (no)

Could you tell me if the measured growth of "COc1cc(/C=C2\CCC/C(=C\c3cc(CN4CCOCC4)c(O)c(OC)c3)C2=O)cc(CN2CCOCC2)c1O" reaches 50% or more? 1 (yes)

Could you tell me if the measured growth of CC1=CCC(OC(=O)C(C)(C)CCC(O)(C(=O)OC2(C(C)C)CCC3(C)OC3C2)C(C)C)(C(C)C)CC1 (stereo unspecified) reaches 50% or more? 0 (no)

* * *

tested on: SK-MEL-5 melanoma; assay: NCI-60 one-dose screen, 48 h; conditions: 10 µM unless noted
The panel holds about 83,000 compounds, 20% with a hit somewhere; the sample as a whole holds those more often. The source made the active and inactive calls. How the source made its calls: active means growth percent below 10; inactive means the rest.
Mark one answer only. Choices: active, inactive

Please indicate how the test categorized "COc1ccc2sc3c(NCCCN)nc4ccccc4c3c(=O)c2c1" . inactive

Please indicate how the test categorized "O=c1oc2ccc(I)cc2c(=O)n1-c1ccc(Cl)cc1F" . active

* * *

System: ACHN renal
Experiment: NCI-60 one-dose screen, 48 h (100 = growth as untreated, 0 = no growth, -100 = all killed)
Conditions: 10 µM unless noted
Procedure: Growth inhibition of the ACHN human tumor cell line is measured as a screen for anti-cancer activity. Cells are grown in 96 well plates and exposed to the test compound for 48 hours. Compounds are tested at a single concentration, which is 10^-5 M for most compounds. The reported endpoint is percent growth (GI% or GIPRCNT), where numbers from 0 - 100% represent growth inhibition, and numbers from -100% - 0 represent cell death. For example, a value of 40 represents 60% growth inhibition. […]
Compounds without any hit were thinned out: in the full panel of roughly 83,000, 20% have a hit.
Label t when growth >= 70%; otherwise f.

O=C1NC(=S)NC(=O)C1=Cc1cn(Cc2cn(Cc3cccc4ccccc34)nn2)c2ccccc12; t
CSc1nc2c(c(=O)n1C)N=C1c3ccccc3C(=O)C1C(c1ccccc1)N2 (configuration not stated); t
Brc1ccc(Nc2nc3ccccc3nc2Nc2ccc(Br)cc2)cc1; f
COc1ccc(Cn2cc(Cn3c(=O)c(-c4nc5ccccc5[nH]4)cc4ccccc43)nn2)c(OC)c1OC; f
O=C(Nc1ccc(Cl)cc1F)c1cc(F)ccc1O; f

Okay, now this compound:
Could you tell me if the measured growth of COc1ccccc1N1CCN(C(CNS(=O)(=O)c2ccc(Cl)cc2)c2cccnc2)CC1 (configuration not stated) reaches 70% or more? t

* * *

Below: a set of entries, each annotated with reported growth.
test system: RXF 393 renal; experiment: NCI-60 one-dose screen, 48 h (100 = growth as untreated, 0 = no growth, -100 = all killed); settings: 10 µM unless noted
The panel holds about 83,000 compounds, 20% with a hit somewhere; the sample as a whole holds those more often.
Please reply with the bare figure in % and do not write the unit itself.

These recorded examples may help you get a feel for the data.
COc1cc(/C(C#N)=C/c2nc3c(N4CCOCC4)nc(Cl)nc3n2C)cc(OC)c1OC; 25.7
O=C(Cn1cc(COc2ncnc3c2cnn3-c2ccccc2)nn1)Nc1cccc2ccccc12; 94.8
COc1cc2nc(-c3cccc4cccnc34)nc(NC3CCN(Cc4ccccc4)CC3)c2cc1OC; -79.8
COc1ccc(-c2nnc(COc3ccc(C(=O)/C=C/c4ccco4)cc3)o2)cc1; 65
O=C(NCc1ccccc1)C1CN(c2ccc(Cl)cc2)N(c2ccc(Cl)cc2)C1=O (stereo unspecified); 81.1

Any idea what growth was measured for COc1cc(C2C3=C(COC3=O)N(CCO)c3cc4c(cc32)CCC4)cc(OC)c1O (stereo unspecified) ? -35.8

Any idea what growth was measured for "NC(=O)CSc1nc(-c2ccc(F)cc2)cc(-c2ccco2)n1" ? 118

Any idea what growth was measured for "COc1cc(NC(=O)CCSc2nc3ccccc3c(=O)n2CCc2ccccn2)cc(OC)c1OC" ? 75.2

Any idea what growth was measured for "COc1ccc2c(c1)C=C1CSCC3=Cc4cc(OC)ccc4OC13O2" ? 5

Any idea what growth was measured for "CN(C)CCCNCc1ccc(-c2ccc(F)c(Cl)c2)o1" ? 16

* * *

Below: a set of entries, each annotated with reported growth.
test system: MALME-3M melanoma; assay: NCI-60 one-dose screen, 48 h (100 = growth as untreated, 0 = no growth, -100 = all killed); conditions: 10 µM unless noted
Compounds without any hit were thinned out: in the full panel of roughly 83,000, 20% have a hit.
Please reply with the bare figure in % and do not write the unit itself.

These recorded examples may help you get a feel for the data.
CCC1=C[C@@H]2CN(C1)Cc1c([nH]c3ccccc13)[C@@](C(=O)OC)(c1cc3c(cc1OC)N(C)[C@H]1[C@@](O)(C(=O)OC)[C@H](OC(C)=O)[C@]4(CC)[C@@H]5C[C@@H]5CN5CC[C@]31[C@@H]54)C2; -63.9
Cc1nc2ccccc2c(/C=C/c2ccc(F)cc2)c1C(N)=O; 105
C[n+]1c2ccccc2nc2ccc(NCCO)cc21; 101
O=C(NC(=S)Nc1cccc(NC(=S)NC(=O)c2ccccc2)c1)c1ccccc1; 55.3
O=C1/C(=C\c2ccc[nH]2)c2ccccc2N1c1ccccc1; 103

Please examine the following record next.
Any idea what growth was measured for "CCCC(=O)CC(C)=O.CCCC(=O)CC(C)=O.[Cu]" ? 89.9

* * *

system: OVCAR-5 ovarian; experiment: NCI-60 one-dose screen, 48 h (100 = growth as untreated, 0 = no growth, -100 = all killed); details: 10 µM unless noted
About 83,000 compounds went through this panel and 20% of them were active in at least one assay; those are over-represented in the sample as a whole.
Below: a set of entries, each annotated with reported growth.
Please reply with the bare figure in % and do not write the unit itself.

These recorded examples may help you get a feel for the data.
CCOC(=O)c1ccc2[nH]c(-c3ccccc3)cc(=O)c2c1; 101
O=c1oc2ccc(F)cc2c(=O)n1-c1ccc(Br)cc1F; 21.8

Any idea what growth was measured for "N#CC(C#N)=Cc1c(-c2ccccc2)[nH]c2ccccc12" ? 75.3

Any idea what growth was measured for "O=C(Nc1ccccc1O)c1ccc(-c2ccc(Cl)cc2Cl)o1" ? 99.2

* * *

Below: a set of entries, each annotated with reported growth.
test system: OVCAR-4 ovarian; experiment: NCI-60 one-dose screen, 48 h (100 = growth as untreated, 0 = no growth, -100 = all killed); conditions: 10 µM unless noted
About 83,000 compounds went through this panel and 20% of them were active in at least one assay; those are over-represented in the sample as a whole.
Please reply with the bare figure in % and do not write the unit itself.

These recorded examples may help you get a feel for the data.
O=C1Nc2ccccc2/C1=C/c1cccs1; 37
Cn1c(/C=C(\C#N)c2ccccc2)nc2c(N3CCOCC3)nc(Cl)nc21; -58.4
COc1ccc(C2=NN(/C=C3\SC(=O)NC3=Nc3ccc(F)cc3)C(c3ccc(F)cc3)C2)cc1 (stereo not given); 101

Identify the measured growth of COc1ccc(CCN2C(=O)/C(=C/c3ccc(C4Oc5ccccc5C5CC(c6cccc(OC)c6)=NN54)cc3)SC2=S)cc1 (stereo not given) for OVCAR-4 ovarian. 98.9

Identify the measured growth of "Cc1[nH]c2ccccc2c(=O)c1CC=C(Cl)Cl" for OVCAR-4 ovarian. -18.6

Identify the measured growth of "O=C(O)c1cn(C2CC2)c2cc(N3CCN(C(=O)C[n+]4ccccc4)CC3)c(F)cc2c1=O" for OVCAR-4 ovarian. 89.4

Identify the measured growth of "O=c1oc2ccc(Cl)cc2c(=O)n1-c1cc(C(F)(F)F)cc(C(F)(F)F)c1" for OVCAR-4 ovarian. 18.1

Identify the measured growth of "O=C(/C=C/c1cccc(Cl)c1)OCc1ccc2cc1OCC#C/C=C\C#CCO2" for OVCAR-4 ovarian. 95.6

Identify the measured growth of "Nc1ccc(-c2nc3cc(Oc4ccc(Oc5ccc6[nH]c(-c7ccc(N)cc7)nc6c5)cc4)ccc3[nH]2)cc1" for OVCAR-4 ovarian. 114

Identify the measured growth of "O=S(=O)(c1ccccc1)n1cc2c(c1-c1ccccc1)CCc1sc(Nc3ccccc3)nc1-2" for OVCAR-4 ovarian. 75.2

Reference source for all entries: PubChem BioAssay (NCI)
